Target: T1, human IL-36R extracellular domain expressed with a C-terminal myc-myc-hexahistidine tag (hIL-36R-MMH) (human, UniProt Q9HB29 20-337)
T1 construct: also called Human IL-36R-MMH; REGN2105
T1 sequence (Q9HB29 other isoform, or with tags, fused parts or gaps limits assumed): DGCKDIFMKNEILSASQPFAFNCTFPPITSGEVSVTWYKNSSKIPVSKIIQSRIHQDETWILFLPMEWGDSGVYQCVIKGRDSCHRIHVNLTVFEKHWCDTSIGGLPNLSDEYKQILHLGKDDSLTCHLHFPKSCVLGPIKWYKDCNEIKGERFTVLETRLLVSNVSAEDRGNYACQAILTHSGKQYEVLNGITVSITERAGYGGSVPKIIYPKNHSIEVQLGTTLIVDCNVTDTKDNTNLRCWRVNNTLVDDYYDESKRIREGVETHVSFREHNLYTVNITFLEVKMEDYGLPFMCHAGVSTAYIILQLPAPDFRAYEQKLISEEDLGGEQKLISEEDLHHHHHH
Assay: SPR Biacore T200, mAb captured on anti-hFc, 37C, PBS-T pH 6.0 running buffer
assay readout: 100 nM hIL-36R-MMH Bound (RU)

binder: H4H14700P2 (antibody, human IgG4 S228P, kappa, V domains shown, Fully human anti-IL-36R antibody) VH: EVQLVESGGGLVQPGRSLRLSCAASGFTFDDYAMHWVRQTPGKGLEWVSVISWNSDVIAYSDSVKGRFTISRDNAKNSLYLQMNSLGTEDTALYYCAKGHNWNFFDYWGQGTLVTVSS VL: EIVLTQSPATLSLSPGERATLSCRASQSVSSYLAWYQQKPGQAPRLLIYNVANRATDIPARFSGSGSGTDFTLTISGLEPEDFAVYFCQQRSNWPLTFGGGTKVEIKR
meas value: 144 RU
--
binder: H4H14728P (antibody, human IgG4 S228P, kappa, V domains shown, Fully human anti-IL-36R antibody) VH: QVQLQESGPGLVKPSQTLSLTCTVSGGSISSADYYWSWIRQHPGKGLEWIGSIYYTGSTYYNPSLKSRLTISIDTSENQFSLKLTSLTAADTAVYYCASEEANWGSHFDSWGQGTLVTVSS VL: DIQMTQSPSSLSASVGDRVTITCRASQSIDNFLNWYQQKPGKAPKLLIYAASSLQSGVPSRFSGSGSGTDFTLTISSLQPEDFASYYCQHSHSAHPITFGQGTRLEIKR
meas value: 114 RU

Data request: Could you share which 100 nM hIL-36R-MMH Bound (RU) value was measured for H4H14731P (antibody, human IgG4 S228P, kappa, V domains shown, Fully human anti-IL-36R antibody) VH: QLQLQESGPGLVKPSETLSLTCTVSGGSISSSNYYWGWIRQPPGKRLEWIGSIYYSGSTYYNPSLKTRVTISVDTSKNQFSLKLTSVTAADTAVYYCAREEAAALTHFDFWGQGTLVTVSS VL: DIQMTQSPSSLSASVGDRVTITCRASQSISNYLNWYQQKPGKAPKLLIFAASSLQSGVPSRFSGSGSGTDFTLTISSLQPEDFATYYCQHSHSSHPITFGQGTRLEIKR ?
Data returned: 84 RU

The measured values listed here are drawn from patent US20200017592A1.
